Test system: HOP-62
Assay: NCI tumour cell line growth inhibition, 48 h
Calls of active or inactive are those of the source. Cut-off read from the data, not from the text of the source: active = GI50 up to about 1.1 µM and inactive = higher.
GI50 listing for selected compounds.

Use the examples below as a reference point.
compound	assay_target	GI50
Cc1ccc(N(C=O)c2c([N+](=O)[O-])cc([N+](=O)[O-])c3c2=[N+]([O-])CN=3)cc1	HOP-62	60 µM (inactive)
Nc1ccc(/C=C/c2ccnc3ccccc23)cc1	HOP-62	15.3 µM (inactive)
CO[C@@H]1O[C@H](C(=O)c2ccccc2)[C@H]2OC(C)(C)O[C@@H]12	HOP-62	> 100 µM (inactive)
Cc1ccnc(NC(=S)Nc2ccc([N+](=O)[O-])cc2)c1	HOP-62	78 µM (inactive)
O=C(OC1CN2CCC1CC2)N(c1ccccc1)c1ccccc1 (centres undefined)	HOP-62	80.5 µM (inactive)

Record COc1ccc(CCNC(=O)CCCCCO)cc1OC : what is its GI50 with HOP-62? > 100 µM (inactive)

Write down the reported GI50 of Cc1ccc2c(c1)C(=O)C1(Cc3ccccc3C1=O)C2 (centres undefined) , test system: HOP-62. 47 µM (inactive)

Query the reported GI50 for HOP-62; item: O=C1CCC(Cc2ccc(Cl)cc2Cl)C(=O)N1 (centres undefined) > 100 µM (inactive)

Form entry - test system: HOP-62; read-out: GI50; compound: CO[C@]12CC(=O)C3(C(C[C@H]4CC5CC[C@H]6C[C@@H](OC(C)=O)CC[C@]6(OC(C)=O)C5C[C@@]43C)C1)C1C[C@H]3[C@@H]4CC[C@H]5C[C@@H](OC(C)=O)CC[C@]5(OC(C)=O)[C@H]4CC[C@]3(C)C12 (some centres undefined) > 100 µM (inactive)

---

System: T47D
Test: NCI tumour cell line growth inhibition, 48 h
Active and inactive are the calls of the source. Cut-off read from the data, not from the text of the source: active = GI50 up to about 1.1 µM and inactive = higher. Residues, ends and D or L forms follow the SMILES beside them. Groups on a side chain read outwards from the residue. *: point of attachment. Cbz = O=C(OCc1ccccc1)*; Boc = CC(C)(C)OC(=O)*
Attribute: GI50

Solved cases below.
compound	observed
O=c1[nH]c2c(c(=O)[nH]1)SSC2	11.2 µM (inactive)
COC(=O)c1ccc(C)cc1CC1Cc2cccc(C)c2C1=O (centres undefined)	5.85 µM (inactive)
CC(C)CC(NC(=O)OCc1ccccc1)C(=O)NCCCCC(NC(=O)C(CCCCNC(=O)C(CC(C)C)NC(=O)OCc1ccccc1)NC(=O)C(CCCCNC(=O)C(CC(C)C)NC(=O)OCc1ccccc1)NC(=O)C(CCCCNC(=O)C(CC(C)C)NC(=O)OCc1ccccc1)NC(=O)OC(C)(C)C)C(=O)O (centres undefined) (Boc-K([Leu-Cbz])K([Leu-Cbz])K([Leu-Cbz])K([Leu-Cbz])-OH; configuration not given here)	> 25 µM (inactive)

Please examine the following record next.
# query: GI50 of entry CCCCOC(=O)N[C@H]1CCc2cc(OC)c(OC)c(OC)c2-c2ccc(SC)c(=O)cc21 18.1 µM (inactive)

---

Tested on: RXF 631
Assay: NCI tumour cell line growth inhibition, 48 h
Activity calls are given as the source filed them. No stated cut-off is given here; in the data, active = GI50 up to about 1.1 µM and inactive = higher.
value_kind: GI50

Check out these entries, answers already filled in.
> print(dat)
                                   compound  value.kind             observed
1  C[C@]12CC[C@H](OC(=O)Cc3ccc(N(CCCl)CCCl)cc3)CC1CC[C@@H]1C2CC[C@]2(C)NC(=O)CCC12 (stereo not given in full)        GI50     16 µM (inactive)
2  COc1cc2c(c(C)c1O)[C@H]1COc3ccccc3[C@H]1O2        GI50   11.6 µM (inactive)
3          COC(=O)N/N=C(\C)c1c(O)cc(C)oc1=O        GI50  > 100 µM (inactive)
4  CC1=NN(C(=O)CC(=O)NC(=O)CC(=O)Nc2ccccc2F)C(=O)C1/N=N/c1ccc([N+](=O)[O-])cc1 (stereo not given)        GI50   30.2 µM (inactive)
5       CCCc1nc(NC#N)nc(C(=O)Nc2ccccc2)c1CC        GI50  > 100 µM (inactive)

Find GI50 (RXF 631) for the entry COc1ccc(CCc2cc(OC)cc(OC)c2)cc1 13.7 µM (inactive)

RXF 631 / GI50 / CC1=NC(C(=O)O)Cc2c1[nH]c1ccccc21 (stereo not given) : value? > 100 µM (inactive)

Look up GI50 with RXF 631 for this compound: COc1ccc(/N=C/c2ccc(N(CCC#N)S(=O)(=O)c3ccccc3)cc2)cc1 > 100 µM (inactive)

Param readout = GI50; param system = RXF 631; param query = CCOc1ccc(/N=C/c2c3ccccc3nc3ccccc23)cc1 ; response: value > 100 µM (inactive)

Hello, I am looking for reported GI50 with RXF 631 for COc1ccc(NC(=O)/C(Cc2nc3ccccc3nc2O)=N\O)c(OC)c1 . Could you help? > 100 µM (inactive)
